# RUN DESCRIPTION: in vitro
# Type: in vitro ADME
# TEST SETTINGS: microsomes, pH 7.4; human; 1 μM compound, 0.5 mg/mL protein; read-out: Liver Microsomal Stability t1/2
REPORTED METRIC: half-life at 1 μM (h)
Entry rule: numbers only, all in h.

Example entries and their recorded answers appear below.
structure=O=C(N[C@H]1N=C(c2ccccc2)c2ccccc2NC1=O)c1c(-c2ccc(C3CC3)nc2)nn2cccnc12 reported_metric="half-life at 1 μM" measured_number=5.22
structure=Cc1ccc2nc(-c3ccccc3)c(C(=O)N[C@H]3N=C(c4ccccc4)c4cccc(F)c4NC3=O)n2n1 reported_metric="half-life at 1 μM" measured_number=34.8
structure=CN1CC(Oc2ccc3nc(-c4ccccc4)c(C(=O)N[C@H]4N=C(c5ccccc5)c5cccc(F)c5NC4=O)n3n2)C1 reported_metric="half-life at 1 μM" measured_number=1.3

input: half-life at 1 μM for CC(C)c1ccc(-c2nn3cccnc3c2C(=O)N[C@H]2N=C(c3ccccc3)c3cccc(F)c3NC2=O)cn1 ?
output: 2.28

input: Thanks! And O=C(N[C@H]1N=C(c2ccccc2)c2cccc(F)c2NC1=O)c1c(-c2cncc(Cl)c2)nn2cccnc12 ?
output: 14.2

input: Thanks! And CN1CC(Oc2ccc3nc(-c4ccccc4F)c(C(=O)N[C@H]4N=C(c5ccccc5)c5cccc(F)c5NC4=O)n3n2)C1 ?
output: 1.3

input: Thanks! And CCc1ccc(-c2nn3cccnc3c2C(=O)N[C@H]2N=C(c3ccccc3)c3cccc(F)c3NC2=O)c(C)n1 ?
output: 1.68

input: Thanks! And Cn1ncc2cc(-c3nn4cccnc4c3C(=O)N[C@H]3N=C(c4ccccc4)c4cccc(F)c4NC3=O)ccc21 ?
output: 1.88

input: Thanks! And CCNc1ccc2nc(-c3ccccc3F)c(C(=O)N[C@H]3N=C(c4ccccc4)c4cccc(F)c4NC3=O)n2n1 ?
output: 0.792

input: Thanks! And COc1ccc2nc(-c3ccncc3F)c(C(=O)N[C@H]3N=C(c4ccccc4)c4cccc(F)c4NC3=O)n2n1 ?
output: 2.68

input: Thanks! And O=C(N[C@H]1N=C(c2ccccc2)c2ccccc2NC1=O)c1c(-c2ccccc2F)nn2ccc(N3CCOCC3)nc12 ?
output: 1.33

input: Thanks! And CC(C)Nc1ccc(-c2nn3cccnc3c2C(=O)N[C@H]2N=C(c3ccccc3)c3cccc(F)c3NC2=O)cn1 ?
output: 4.4

input: Thanks! And O=C(N[C@H]1N=C(c2ccccc2)c2cccc(F)c2NC1=O)c1c(-c2ccc(N3CCOCC3)nc2)nn2cccnc12 ?
output: 3

input: Thanks! And Cc1cnc(F)c(-c2nn3cccnc3c2C(=O)N[C@H]2N=C(c3ccccc3)c3cccc(F)c3NC2=O)c1 ?
output: 5.58

input: Thanks! And CCc1ccc(-c2nn3cccnc3c2C(=O)N[C@H]2N=C(c3ccccc3)c3ccccc3NC2=O)cn1 ?
output: 2.92

input: Thanks! And CC(C)Nc1ccc(-c2nn3cccnc3c2C(=O)N[C@H]2N=C(c3ccccc3)c3cccc(F)c3NC2=O)c(F)n1 ?
output: 3.45

input: Thanks! And [2H]C([2H])([2H])Oc1ccc2nc(-c3ccccc3)c(C(=O)N[C@H]3N=C(c4ccccc4)c4cccc(F)c4NC3=O)n2n1 ?
output: 4.1

input: Thanks! And Cc1cncc(-c2nn3cccnc3c2C(=O)N[C@H]2N=C(c3ccccc3)c3cccc(F)c3NC2=O)c1 ?
output: 24.2

input: Thanks! And O=C(N[C@H]1N=C(c2ccccc2)c2ccccc2NC1=O)c1c(-c2ccccc2F)nn2cccnc12 ?
output: 3.08

input: Thanks! And O=C(N[C@H]1N=C(c2ccccc2)c2cccc(F)c2NC1=O)c1c(-c2ccc(F)cc2F)nc2cccnn12 ?
output: 12.3

input: Thanks! And O=C(N[C@H]1N=C(c2ccccc2)c2cccc(F)c2NC1=O)c1c(-c2ccccc2F)nc2cccnn12 ?
output: 12.3

* * *

# RUN DESCRIPTION: in vitro
# Type: in vitro ADME
# TEST SETTINGS: microsomes, pH 7.4; human; 1 μM compound, 0.5 mg/mL protein; read-out: Liver Microsomal Stability t1/2
REPORTED METRIC: half-life at 1 μM (h)
Entry rule: numbers only, all in h.

Example entries and their recorded answers appear below.
structure=Cc1ccc2nc(-c3cccnc3)c(C(=O)N[C@H]3N=C(c4ccccc4)c4cccc(F)c4NC3=O)n2n1 measured_number=42.8
structure=O=C(N[C@H]1N=C(c2ccccc2)c2ccccc2NC1=O)c1c(-c2cncc(Cl)c2)nn2cccnc12 measured_number=2.03
structure=O=C(N[C@H]1N=C(c2ccccc2)c2ccccc2NC1=O)c1c(-c2cccc(F)c2F)nn2cccnc12 measured_number=3.35

Let us move to another entry and its half-life at 1 μM.
input: half-life at 1 μM for Cc1ccc2nc(-c3ccc(F)cc3F)c(C(=O)N[C@H]3N=C(c4ccccc4)c4cccc(F)c4NC3=O)n2n1 ?
output: 1.68

* * *

Quick reference for log10 half-life at 1 μM among some compounds
# RUN DESCRIPTION: in vitro
# Assay type: in vitro ADME
# TEST SETTINGS: microsomes, pH 7.4; dog; 1 μM compound, 0.5 mg/mL protein; read-out: Liver Microsomal Stability t1/2
// stored as log10 of half-life at 1 μM expressed in min

Example entries and their recorded answers appear below.
structure=CC(C)Nc1ccc(-c2nn3cccnc3c2C(=O)N[C@H]2N=C(c3ccccc3)c3ccccc3NC2=O)c(F)n1 reported_metric="log10 half-life at 1 μM" measured_number=1.43
structure=CN1CC(Oc2ccc3nc(-c4ccccc4F)c(C(=O)N[C@H]4N=C(c5ccccc5)c5cccc(F)c5NC4=O)n3n2)C1 reported_metric="log10 half-life at 1 μM" measured_number=2.24
structure=COc1ccc2nc(-c3ccccc3F)c(C(=O)N[C@H]3N=C(c4ccccc4)c4cccc(F)c4NC3=O)n2n1 reported_metric="log10 half-life at 1 μM" measured_number=2.67
structure=Cc1ccnc2c(C(=O)N[C@H]3N=C(c4ccccc4)c4ccccc4NC3=O)c(-c3ccccc3F)nn12 reported_metric="log10 half-life at 1 μM" measured_number=2.07
structure=CC(C)c1ccc(-c2nn3cccnc3c2C(=O)N[C@H]2N=C(c3ccccc3)c3cccc(F)c3NC2=O)cn1 reported_metric="log10 half-life at 1 μM" measured_number=1.96
structure=O=C(N[C@H]1N=C(c2ccccc2)c2cccc(F)c2NC1=O)c1c(-c2ccc(N3CCOCC3)nc2)nn2cccnc12 reported_metric="log10 half-life at 1 μM" measured_number=1.71
structure=CN1CC(Oc2ccc3nc(-c4ccccc4)c(C(=O)N[C@H]4N=C(c5ccccc5)c5cccc(F)c5NC4=O)n3n2)C1 reported_metric="log10 half-life at 1 μM" measured_number=2.41
structure=Cc1ccn2nc(-c3ccc(F)cc3F)c(C(=O)N[C@H]3N=C(c4ccccc4)c4cccc(F)c4NC3=O)c2n1 reported_metric="log10 half-life at 1 μM" measured_number=2.35

input: log10 half-life at 1 μM for O=C(N[C@H]1N=C(c2ccccc2)c2cccc(F)c2NC1=O)c1c(-c2ccc(F)cc2F)nc2cccnn12 ?
output: 3.03

input: Thanks! And O=C(N[C@H]1N=C(c2ccccc2)c2ccccc2NC1=O)c1c(-c2ccccc2F)nn2cccnc12 ?
output: 2.65

* * *

# RUN DESCRIPTION: in vitro
# Format: in vitro ADME
# TEST SETTINGS: hepatocytes; human; 3 μM compound; read-out: Liver Hepatocyte Stability t1/2
Quick reference for half-life at 3 μM among some molecules

Example entries and their recorded answers appear below.
molecule="Cc1ccc2nc(-c3ccccc3F)c(C(=O)N[C@H]3N=C(c4ccccc4)c4cccc(F)c4NC3=O)n2n1 [Example 19]" result="2.02 h"
molecule="COc1ccc2nc(-c3ccncc3F)c(C(=O)N[C@H]3N=C(c4ccccc4)c4cccc(F)c4NC3=O)n2n1 [Example 119]" result="> 3.1 h"
molecule="Cc1ccc(-c2nn3cccnc3c2C(=O)N[C@H]2N=C(c3ccccc3)c3cccc(F)c3NC2=O)cn1 [Example 50]" result="> 3.1 h"

input: half-life at 3 μM for CCc1ccc(-c2nn3cccnc3c2C(=O)N[C@H]2N=C(c3ccccc3)c3cccc(F)c3NC2=O)cn1 [Example 55] ?
output: > 3.1 h

input: Thanks! And CCc1ccc(-c2nn3cccnc3c2C(=O)N[C@H]2N=C(c3ccccc3)c3cccc(F)c3NC2=O)c(C)n1 [Example 57] ?
output: > 3.1 h

input: Thanks! And Cc1ccc2nc(-c3ccccc3)c(C(=O)N[C@H]3N=C(c4ccccc4)c4cccc(F)c4NC3=O)n2n1 [Example 93] ?
output: 4.9 h

input: Thanks! And Cc1nc2ccc(Cl)nn2c1C(=O)N[C@H]1N=C(c2ccccc2)c2cccc(F)c2NC1=O [Example 20] ?
output: 2.18 h

* * *

# RUN DESCRIPTION: Cell cytotoxicity (CC50)
# Type: cell-based
# TEST SETTINGS: human; mean of at least two experiments
Quick reference for CC50 among some compounds

Example entries and their recorded answers appear below.
structure=O=C(N[C@H]1N=C(c2ccccc2)c2cccc(F)c2NC1=O)c1c(-c2ccc(N3CCOCC3)nc2)nn2cccnc12 result="> 25 µM"
structure=O=C(N[C@H]1N=C(c2ccccc2)c2ccccc2NC1=O)c1c(-c2ccc(F)cc2F)nc2cccnn12 result="> 25 µM"
structure=CCc1ccc(-c2nn3cccnc3c2C(=O)N[C@H]2N=C(c3ccccc3)c3cccc(F)c3NC2=O)cn1 result="> 25 µM"

Let us move to another entry and its CC50.
input: CC50 for Cc1ccc(F)c(-c2nn3cccnc3c2C(=O)N[C@H]2N=C(c3ccccc3)c3ccccc3NC2=O)c1 ?
output: 15.4 µM

meta.source: patent US11634425B2
